Entries annotated with measured Percent Effect
TARGET ENTITY: Sialic acid-binding Ig-like lectin 9 (Homo sapiens) (UniProt Q9Y336)
Sequence (Q9Y336 whole entry): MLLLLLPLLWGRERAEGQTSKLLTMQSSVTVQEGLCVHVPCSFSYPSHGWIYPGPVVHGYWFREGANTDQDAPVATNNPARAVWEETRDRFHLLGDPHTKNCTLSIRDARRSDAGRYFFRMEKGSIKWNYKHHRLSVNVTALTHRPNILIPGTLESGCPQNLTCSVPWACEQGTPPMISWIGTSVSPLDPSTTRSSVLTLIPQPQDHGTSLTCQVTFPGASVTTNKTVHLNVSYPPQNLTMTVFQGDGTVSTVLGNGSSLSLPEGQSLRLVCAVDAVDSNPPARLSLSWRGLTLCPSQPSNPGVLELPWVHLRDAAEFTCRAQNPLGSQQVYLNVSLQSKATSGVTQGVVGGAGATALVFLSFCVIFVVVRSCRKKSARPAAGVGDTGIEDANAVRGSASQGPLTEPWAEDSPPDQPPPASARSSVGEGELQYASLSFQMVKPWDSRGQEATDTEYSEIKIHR
ASSAY METHOD TEXT: Hs-Siglec9 ALPHAscreen SOP 20170721
Set-up: scale not given: direction of the effect not stated beside the values
CONDITION DESCRIPTION: 10 µM

| COMPOUND | TARGET ENTITY | Percent Effect [%] |
| --- | --- | --- |
| N#Cc1ccc(CN2CCN(C(=O)c3cc(C4CC4)[nH]n3)CC2)cc1 | Sialic acid-binding Ig-like lectin 9 (Homo sapiens) (UniProt Q9Y336) | 14.7 |
| COc1ccc(C(=O)N2CCCCC2c2nc(C)cs2)nn1 (centres undefined) | Sialic acid-binding Ig-like lectin 9 (Homo sapiens) (UniProt Q9Y336) | 4.77 |
| COc1ccccc1CCNC(=O)CN1CCCC1c1noc(C)n1 (centres undefined) | Sialic acid-binding Ig-like lectin 9 (Homo sapiens) (UniProt Q9Y336) | 11.8 |
| COc1ccc(-n2ccc(C(=O)N3CCN(C)CC3C)n2)cc1 (centres undefined) | Sialic acid-binding Ig-like lectin 9 (Homo sapiens) (UniProt Q9Y336) | 7.32 |
| Cc1nc(CN2CCCCC2Cn2cncn2)nc2ccccc12 (centres undefined) | Sialic acid-binding Ig-like lectin 9 (Homo sapiens) (UniProt Q9Y336) | -19.4 |
| CC(C)c1nn(CC(=O)N2CCCCC2)c(=O)c2c1cnn2C(C)(C)C | Sialic acid-binding Ig-like lectin 9 (Homo sapiens) (UniProt Q9Y336) | -1.33 |
| COCC1CN(Cc2ccc(C)o2)Cc2cn(C)nc21 (centres undefined) | Sialic acid-binding Ig-like lectin 9 (Homo sapiens) (UniProt Q9Y336) | 16.5 |
| CSc1ccc(C(CNC(=O)C2CC2)N2CCc3sccc3C2)cc1 (centres undefined) | Sialic acid-binding Ig-like lectin 9 (Homo sapiens) (UniProt Q9Y336) | -0.599 |
| CCOCC(O)CN1CCN(C(=O)c2cnc3n[nH]c(C)c3c2)CC1 (centres undefined) | Sialic acid-binding Ig-like lectin 9 (Homo sapiens) (UniProt Q9Y336) | 1.55 |
| Cn1cnc2c1CCN(Cc1nc(Cc3ccccc3)no1)C2 | Sialic acid-binding Ig-like lectin 9 (Homo sapiens) (UniProt Q9Y336) | -0.869 |
| CCc1nnc2n1CCN(C(=O)c1ccc(C(F)(F)F)nc1C)C2 | Sialic acid-binding Ig-like lectin 9 (Homo sapiens) (UniProt Q9Y336) | 14.3 |
| COc1ccccc1OCCN1CCCC(c2noc(C3CC3)n2)C1 (centres undefined) | Sialic acid-binding Ig-like lectin 9 (Homo sapiens) (UniProt Q9Y336) | -0.399 |
| CCC(C)[C@H](NC(=O)c1cc(Br)ccc1-n1cnnn1)C(=O)OC (some centres undefined) | Sialic acid-binding Ig-like lectin 9 (Homo sapiens) (UniProt Q9Y336) | -6.61 |
| O=C(CN1C=Nc2ccccc2S1(=O)=O)NCCc1cccs1 | Sialic acid-binding Ig-like lectin 9 (Homo sapiens) (UniProt Q9Y336) | 5.67 |
| Cc1nccn1-c1nccnc1C1CCN(Cc2ccc(F)cc2)CC1 | Sialic acid-binding Ig-like lectin 9 (Homo sapiens) (UniProt Q9Y336) | -5.84 |
| Nc1nccc(N2CCCC(CO)(CCOc3ccccc3)C2)n1 (centres undefined) | Sialic acid-binding Ig-like lectin 9 (Homo sapiens) (UniProt Q9Y336) | 19 |
| CCOC(=O)[C@]12CCCN(Cc3ccco3)C[C@H]1CN(CCN(C)C)C2 | Sialic acid-binding Ig-like lectin 9 (Homo sapiens) (UniProt Q9Y336) | 8.64 |
| Cc1cc(CN(C)C(=O)c2cccc(N3CCCC3=O)c2)no1 | Sialic acid-binding Ig-like lectin 9 (Homo sapiens) (UniProt Q9Y336) | -9 |
| Cn1cc(C(=O)CC2CCCN2C(=O)c2cncc3ccccc23)cn1 (centres undefined) | Sialic acid-binding Ig-like lectin 9 (Homo sapiens) (UniProt Q9Y336) | 2.04 |
| CCc1nnc(CN(C)c2nc(C(C)C)nc3c2cnn3C)o1 | Sialic acid-binding Ig-like lectin 9 (Homo sapiens) (UniProt Q9Y336) | -0.661 |
| O=C1N(c2ccc(F)cc2)Cc2nc(=O)n(Cc3cccc(Cl)c3)n21 | Sialic acid-binding Ig-like lectin 9 (Homo sapiens) (UniProt Q9Y336) | 4.81 |
| COc1ccccc1CNC(=O)Cn1ncc2c1c(C)nn2C | Sialic acid-binding Ig-like lectin 9 (Homo sapiens) (UniProt Q9Y336) | 6.52 |
| Cn1ncc2c(=O)[nH]c(CN3CCCC3Cc3ccccc3)nc21 (centres undefined) | Sialic acid-binding Ig-like lectin 9 (Homo sapiens) (UniProt Q9Y336) | 3.61 |
| CSCCC(=O)N1CCC(Oc2cc(C)ccc2F)(C(=O)O)CC1 | Sialic acid-binding Ig-like lectin 9 (Homo sapiens) (UniProt Q9Y336) | -2.17 |
